assay-procedure: HepG2 cytotoxicity bioluminescence assay (CellTiterGlo, ATP)
Assay type: cell-based, human
condition-summary: human, uninfected HepG2-CD81 cells; uninfected HepG2, ATP bioluminescence
// EC50 at 72 h lookup, one value per entry
measured-attribute: EC50 at 72 h

INSERT INTO assay_data (molecule, result) VALUES
  ('C[C@H]1[C@H](N2CCS(=O)(=O)CC2)O[C@@H]2O[C@@]3(C)CC[C@H]4[C@H](C)CC[C@@H]1[C@@]24OO3', '> 50 µM'),
  ('C[C@H]1[C@H](N2CCSCC2)O[C@@H]2O[C@@]3(C)CC[C@H]4[C@H](C)CC[C@@H]1[C@@]24OO3 [Artemiside 7, artemiside]', '> 25 µM'),
  ('O=C1C(O)=C([C@H]2CC[C@H](c3ccc(Cl)cc3)CC2)C(=O)c2ccccc21', '> 0.25 µM');
